# ASSAY_EXPLANATION: Pharmacokinetic test in beagle dogs
# Format: in vivo
# ASSAY_CONTEXT: male, dog, plasma, po, i.g. 5 mg/kg
QUANTITY_KIND: bioavailability (%)
Return type: number; implicit unit %.

Q: Which bioavailability is reported for this molecule? COc1ncnc(C2CC2)c1-c1ncc2cnn(Cc3ccc(-c4nc(C(F)(F)F)cn4C(C)C)cc3)c2n1 [Control compound A, reference compound]
Result: 15.8

----------
# ASSAY_EXPLANATION: Pharmacokinetic test in beagle dogs
# Format: in vivo
# ASSAY_CONTEXT: male, dog, po, plasma, i.g. 5 mg/kg, read-out: AUC0-t
QUANTITY_KIND: AUC0-t (ng·h/mL)
Unit ng·h/mL implied. Number only.

Q: Any idea what its AUC0-t is? The compound is COc1ncnc(C2CC2)c1-c1ncc2cnn(Cc3ccc(-c4nc(C(F)(F)F)cn4C(C)C)cc3)c2n1 [Control compound A, reference compound]
Result: 994
